# experimentalTarget: T1, AAV8 (adeno-associated virus 8, Assembled 60-mer capsid of VP1/VP2/VP3 (nested products of one cap gene), amine-coupled to a CM5 chip; the letters give one VP1 subunit only.)
# T1 construct: also called adeno-associated virus serotype 8
# T1 chain: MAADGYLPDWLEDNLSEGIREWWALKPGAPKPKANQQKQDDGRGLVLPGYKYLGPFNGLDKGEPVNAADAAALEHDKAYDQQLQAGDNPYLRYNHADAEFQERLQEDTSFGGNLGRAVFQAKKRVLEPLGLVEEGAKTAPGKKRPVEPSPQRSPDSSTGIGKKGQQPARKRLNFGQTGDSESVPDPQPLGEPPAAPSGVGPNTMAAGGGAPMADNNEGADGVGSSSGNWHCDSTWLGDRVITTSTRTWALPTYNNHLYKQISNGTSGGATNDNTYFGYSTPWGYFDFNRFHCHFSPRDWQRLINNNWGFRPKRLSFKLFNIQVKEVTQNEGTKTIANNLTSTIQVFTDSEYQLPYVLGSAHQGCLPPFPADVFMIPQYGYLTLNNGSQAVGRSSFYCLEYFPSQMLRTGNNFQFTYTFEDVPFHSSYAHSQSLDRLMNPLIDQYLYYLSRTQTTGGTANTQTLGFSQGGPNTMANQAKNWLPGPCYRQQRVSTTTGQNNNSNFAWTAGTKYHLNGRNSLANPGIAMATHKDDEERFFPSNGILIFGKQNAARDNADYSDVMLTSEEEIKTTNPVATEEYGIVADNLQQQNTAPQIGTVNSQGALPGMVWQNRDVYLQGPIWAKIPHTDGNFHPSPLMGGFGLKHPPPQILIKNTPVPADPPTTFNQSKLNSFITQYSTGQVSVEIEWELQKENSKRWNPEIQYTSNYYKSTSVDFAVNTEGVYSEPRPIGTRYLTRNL
# protocolText: SPR, AAV amine-coupled to CM5 chip
pKd: −log10 of the molar value.
Answer Not met if pKd is under 9, and Met if it is 9 or more.

binder: A4-C1 (VHH) VQLQESGGGLVQPGGSLRLSCAASGSGFSINTMGWYRQAPGKQRELVATVTRDGSTNYADFVKGRFTISRDNAKNTVYLQMNSLRPEDTAVYYCHLDEVRESSWTTSNLWGQGTQVTVSSGGGGSGGGGSGGGGSVQLQESGGGLVQPGGSLRLSCAASGSGFSINTMGWYRQAPGKQRELVATVTRDGSTNYADFVKGRFTISRDNAKNTVYLQMNSLRPEDTAVYYCHLDEVRESSWTTSNLWGQGTQVTVSSGGGGSGGGGSGGGGSVQLQESGGGLVQPGGSLRLSCAASGSGFSINTMGWYRQAPGKQRELVATVTRDGSTNYADFVKGRFTISRDNAKNTVYLQMNSLRPEDTAVYYCHLDEVRESSWTTSNLWGQGTQVTVSS
assignedLabel: Not met
--
binder: A4-C2 (VHH) VQLQESGGGLVQPGGSLRLSCAASGSAFSINTMGWYRQAPGKQRELVASVTPGGSTNYADSVKGRFTISRDNAKNTIYLQMNSLRPEDTAVYYCHLDEVRESSWTTSNLWGQGTQVTVSSGGGGSGGGGSGGGGSVQLQESGGGLVQPGGSLRLSCAASGSAFSINTMGWYRQAPGKQRELVASVTPGGSTNYADSVKGRFTISRDNAKNTIYLQMNSLRPEDTAVYYCHLDEVRESSWTTSNLWGQGTQVTVSSGGGGSGGGGSGGGGSVQLQESGGGLVQPGGSLRLSCAASGSAFSINTMGWYRQAPGKQRELVASVTPGGSTNYADSVKGRFTISRDNAKNTIYLQMNSLRPEDTAVYYCHLDEVRESSWTTSNLWGQGTQVTVSS
assignedLabel: Met
--
binder: A4-C4 (bispecific antibody) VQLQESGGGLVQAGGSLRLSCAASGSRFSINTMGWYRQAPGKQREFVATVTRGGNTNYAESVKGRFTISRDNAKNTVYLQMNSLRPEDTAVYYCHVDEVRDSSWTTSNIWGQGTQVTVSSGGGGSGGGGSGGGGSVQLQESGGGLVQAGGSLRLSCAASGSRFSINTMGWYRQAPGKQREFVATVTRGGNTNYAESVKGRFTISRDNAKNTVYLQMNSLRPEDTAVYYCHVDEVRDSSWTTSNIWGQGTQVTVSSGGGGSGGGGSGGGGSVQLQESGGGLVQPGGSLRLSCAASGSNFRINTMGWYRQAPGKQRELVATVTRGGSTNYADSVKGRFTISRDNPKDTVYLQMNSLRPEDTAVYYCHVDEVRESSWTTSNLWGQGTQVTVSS
assignedLabel: Not met
